Test: Cellular viability qHTS for adrenocortical cancer (ACC) cell line NCI-H295R (AID 1963990); further: nearly all actives have a fitted effect of over 60% in size; further: potency means the concentration at half of the fitted maximal effect
Details: CellTiter-Glo ATP luminescence, 48 h; series mostly up to 46.1 µM
Description: PI: Naris Nilubol, MD Surgical Oncology Program, National Cancer Institute (NCI) National Institute of Health (NIH), Bethesda, Maryland Adrenocortical cancer (ACC) is a rare malignancy with poor survival outcomes and few treatment options. Currently, mitotane is the only FDA-approved therapy for ACC. […] Through a quantitative high-throughput drug screen (qHTS), we identified auranofin (AF), a thioredoxin reductase (TXNRD) inhibitor, as a promising candidate drug. […]
Inconclusive results are not listed. The source made the active and inactive calls. The call rests on the fitted dose curve; in most records, active means well fitted cell-killing curve with a large enough effect; inconclusive means small, poorly fitted or top-dose-only effect; inactive means flat fitted curve, though single readings scatter.

[
  {
    "lineNotation": "Oc1ccc(OCc2ccccc2)cc1",
    "Potency": "inactive"
  },
  {
    "lineNotation": "c1ccc(CCNc2nc(-c3ccccc3)cs2)cc1",
    "Potency": "inactive"
  },
  {
    "lineNotation": "CCOc1ccc(NC(C)=O)cc1",
    "Potency": "inactive"
  },
  {
    "lineNotation": "O=C(O)Cc1cccc(OCCCN(Cc2cccc(C(F)(F)F)c2Cl)CC(c2ccccc2)c2ccccc2)c1",
    "Potency": "22.4 µM (active)"
  },
  {
    "lineNotation": "CN1CCN(CCCN2c3ccccc3Sc3ccc(C(F)(F)F)cc32)CC1",
    "Potency": "23.1 µM (active)"
  },
  {
    "lineNotation": "CC(C)N(CCC(=O)c1ccc2ccccc2c1)Cc1ccccc1",
    "Potency": "14.1 µM (active)"
  },
  {
    "lineNotation": "c1ccc([C@H]2CN3CCSC3=N2)cc1",
    "Potency": "inactive"
  },
  {
    "lineNotation": "COc1cc2ncnc(Nc3ccc(F)c(Cl)c3)c2cc1OCCCN1CCOCC1",
    "Potency": "inactive"
  },
  {
    "lineNotation": "C=CC(=O)N1C[C@H](Nc2ncnc3[nH]ccc23)CC[C@@H]1C",
    "Potency": "inactive"
  },
  {
    "lineNotation": "N#C/C(=C(/N)Sc1ccc(N)cc1)c1ccccc1C(F)(F)F",
    "Potency": "inactive"
  },
  {
    "lineNotation": "O=C(c1ccc(Nc2nccc(-c3cc4ccccc4s3)n2)cc1)N1CCC(N2CCCC2)CC1",
    "Potency": "5.62 µM (active)"
  },
  {
    "lineNotation": "CCOc1ccc(NS(=O)(=O)c2ccc(N)cc2)nn1",
    "Potency": "inactive"
  }
]
